Tested on: ras farnesylation in ras-transformed cells
Assay: Gel shift assay
Assay type: cell-based
Conditions: ras-transformed cells, 18-hour incubation; read-out: Gel Shift (μM) MED (minimal effective dose to observe inhibition of ras farnesylation)
Protocol: Twenty-four hours after planting 2×10^6 ras-transformed cells per treatment condition, the farnesylation inhibitor is added at varying concentrations. Following an 18-hour incubation period, cells are lysed in phosphate-buffered saline containing 1% Triton X-100, 0.5% sodium deoxycholate, and 0.1% SDS (sodium dodecyl sulfate), pH 7.4 in the presence of several protease inhibitors (PMSF (phenylmethylsulfonylfluoride), antipain, leupeptin, pepstatin A, and aprotinin all at 1 μg/mL). […]
assayEndpoint: minimal effective concentration (µM)
Enter your answer as a number in µM; do not include the unit.

Below, each entry is followed by its recorded minimal effective concentration result.
INSERT INTO results (compound, testedtarget, assayendpoint, observedmeasurement) VALUES
  ('Cc1ccccc1CN(CC(=O)NCC(C)c1ccccc1)C(=O)[C@H](Cc1c[nH]cn1)NC(=O)OCc1ccccc1 (stereo partly drawn) [Example 43]', 'ras farnesylation in ras-transformed cells', 'minimal effective concentration', 0.2),
  ('CC(CNC(=O)CN(Cc1ccc(C(F)(F)F)cc1)C(=O)[C@H](Cc1c[nH]cn1)NC(=O)OCc1ccccc1)c1ccccc1 (stereo partly drawn) [Example 38]', 'ras farnesylation in ras-transformed cells', 'minimal effective concentration', 0.2),
  ('CCC(CC)(CNC(=O)CN(Cc1ccc(OCc2ccccc2)cc1)C(=O)[C@H](Cc1cnc[nH]1)NC(=O)OCc1ccccc1)c1ccccc1 [Example 25]', 'ras farnesylation in ras-transformed cells', 'minimal effective concentration', 0.2),
  ('CC(C)(CNC(=O)CN(Cc1ccc(Cl)cc1)C(=O)[C@H](Cc1c[nH]cn1)NC(=O)OCc1ccccc1)c1ccccc1 [Example 31]', 'ras farnesylation in ras-transformed cells', 'minimal effective concentration', 0.1),
  ('O=C(CN(Cc1ccc(OCc2ccccc2)cc1)C(=O)[C@H](Cc1c[nH]cn1)NC(=O)OCc1ccccc1)NCCc1ccccn1 [Example 8]', 'ras farnesylation in ras-transformed cells', 'minimal effective concentration', 0.2),
  ('CC(CNC(=O)CN(Cc1ccc(Br)cc1)C(=O)[C@H](Cc1c[nH]cn1)NC(=O)OCc1ccccc1)c1ccccc1 (stereo partly drawn) [Example 29]', 'ras farnesylation in ras-transformed cells', 'minimal effective concentration', 0.1),
  ('CC(CNC(=O)CN(Cc1ccc(Cl)cc1)C(=O)[C@H](Cc1c[nH]cn1)NC(=O)OCc1ccccc1)c1ccccc1 (stereo partly drawn) [Example 13]', 'ras farnesylation in ras-transformed cells', 'minimal effective concentration', 0.2),
  ('CC(C)(CNC(=O)CN(Cc1ccc(F)cc1)C(=O)[C@H](Cc1c[nH]cn1)NC(=O)OCc1ccccc1)c1ccccc1 [Example 22]', 'ras farnesylation in ras-transformed cells', 'minimal effective concentration', 0.2);

Answer with reported minimal effective concentration of CC(CNC(=O)CN(Cc1ccc(OCc2ccccc2)cc1)C(=O)[C@H](Cc1c[nH]cn1)NC(=O)CCc1ccccc1)c1ccccc1 (stereo partly drawn) [Example 17]
0.2

Answer with reported minimal effective concentration of CC(CNC(=O)CN(Cc1ccccc1)C(=O)[C@H](Cc1c[nH]cn1)NC(=O)OCc1ccccc1)c1ccccc1 (stereo partly drawn) [Example 23]
0.2

Answer with reported minimal effective concentration of COc1ccc(CN(CC(=O)NCC(C)(C)c2ccccc2)C(=O)[C@H](Cc2c[nH]cn2)NC(=O)OCc2ccccc2)cc1 [Example 44]
0.02

Answer with reported minimal effective concentration of Cc1cccc(CN(CC(=O)NCC(C)c2ccccc2)C(=O)[C@H](Cc2c[nH]cn2)NC(=O)OCc2ccccc2)c1 (stereo partly drawn) [Example 47]
0.05

Answer with reported minimal effective concentration of CC(CNC(=O)CN(Cc1ccc(N(C)C)cc1)C(=O)[C@H](Cc1c[nH]cn1)NC(=O)OCc1ccccc1)c1ccccc1 (stereo partly drawn) [Example 48]
0.05

Answer with reported minimal effective concentration of CC(C)(CNC(=O)CN(Cc1ccc(-c2ccccc2)cc1)C(=O)[C@H](Cc1c[nH]cn1)NC(=O)OCc1ccccc1)c1ccccc1 [Example 52]
0.05

Answer with reported minimal effective concentration of CC(C)(CNC(=O)CN(Cc1ccccn1)C(=O)[C@H](Cc1c[nH]cn1)NC(=O)OCc1ccccc1)c1ccccc1 [Example 46]
1

Answer with reported minimal effective concentration of CC(CNC(=O)CN(Cc1ccc(OCc2ccccc2)cc1)C(=O)[C@H](Cc1c[nH]cn1)NC(=O)NCc1ccccc1)c1ccccc1 (stereo partly drawn) [Example 6]
0.2

Answer with reported minimal effective concentration of O=C(CN(Cc1ccc(OCc2ccccc2)cc1)C(=O)[C@H](Cc1cnc[nH]1)NC(=O)OCc1ccccc1)NCC(O)c1ccccc1 (stereo partly drawn) [Example 14]
0.05

Answer with reported minimal effective concentration of O=C(CN(Cc1ccc(OCc2ccccc2)cc1)C(=O)[C@H](Cc1c[nH]cn1)NC(=O)OCc1ccccc1)NCCOCc1ccccc1 [Example 1]
1

Answer with reported minimal effective concentration of CC(C)(CNC(=O)CN(Cc1ccc(OCc2ccccc2)cc1)C(=O)[C@H](Cc1c[nH]cn1)NC(=O)OCc1ccsc1)c1ccccc1 [Example 54]
0.2

Answer with reported minimal effective concentration of CC(CNC(=O)CN(Cc1ccc(F)cc1)C(=O)[C@H](Cc1c[nH]cn1)NC(=O)OCc1ccccc1)c1ccccc1 (stereo partly drawn) [Example 18]
0.2

Answer with reported minimal effective concentration of CC(CNC(=O)CN(Cc1cccc(Cl)c1)C(=O)[C@H](Cc1c[nH]cn1)NC(=O)OCc1ccccc1)c1ccccc1 (stereo partly drawn) [Example 30]
0.1

Answer with reported minimal effective concentration of O=C(CN(Cc1ccc(Cl)cc1)C(=O)[C@H](Cc1c[nH]cn1)NC(=O)OCc1ccccc1)NCCOCc1ccccc1 [Example 3]
0.25

###

Below, each entry is listed alongside its reported minimal effective concentration.
System: ras farnesylation in ras-transformed cells
Assay: Gel shift assay
Format: cell-based
Settings: ras-transformed cells, 18-hour incubation; read-out: Gel Shift (μM) MED (minimal effective dose to observe inhibition of ras farnesylation)
Method: Twenty-four hours after planting 2×10^6 ras-transformed cells per treatment condition, the farnesylation inhibitor is added at varying concentrations. Following an 18-hour incubation period, cells are lysed in phosphate-buffered saline containing 1% Triton X-100, 0.5% sodium deoxycholate, and 0.1% SDS (sodium dodecyl sulfate), pH 7.4 in the presence of several protease inhibitors (PMSF (phenylmethylsulfonylfluoride), antipain, leupeptin, pepstatin A, and aprotinin all at 1 μg/mL). […]
Enter your answer as a number in µM; do not include the unit.

Below, each entry is followed by its recorded minimal effective concentration result.
INSERT INTO results (compound, testedtarget, observedmeasurement) VALUES
  ('Cc1ccc(CN(CC(=O)NCC(C)c2ccccc2)C(=O)[C@H](Cc2c[nH]cn2)NC(=O)OCc2ccccc2)cc1 (stereo partly drawn)', 'ras farnesylation in ras-transformed cells', 0.05),
  ('CC(C)(CNC(=O)CN(Cc1ccc(OCc2ccncc2)cc1)C(=O)[C@H](Cc1c[nH]cn1)NC(=O)OCc1ccccc1)c1ccccc1', 'ras farnesylation in ras-transformed cells', 0.05),
  ('C[C@@H](Cc1ccccc1)NC(=O)CN(Cc1ccc(OCc2ccccc2)cc1)C(=O)[C@H](Cc1c[nH]cn1)NC(=O)OCc1ccccc1', 'ras farnesylation in ras-transformed cells', 0.2),
  ('COc1cccc(CN(CC(=O)NCC(C)(C)c2ccccc2)C(=O)[C@H](Cc2c[nH]cn2)NC(=O)OCc2ccccc2)c1', 'ras farnesylation in ras-transformed cells', 0.05);

Answer with reported minimal effective concentration of CN(Cc1ccccc1)C(=O)N[C@@H](Cc1c[nH]cn1)C(=O)N(CC(=O)NCC(C)(C)c1ccccc1)Cc1ccc(OCc2ccccc2)cc1
0.05

###

Below, each entry is listed alongside its reported IC50.
Target: SF9 affinity purified rat farnesyl protein transferase (Rattus norvegicus, UniProt Q02293+Q04631)
Construct: made in house; host or cells: Sf9 insect cells (baculovirus system inferred from b7)
Assay: PFT inhibitory activity (radiolabeled farnesyl pyrophosphate, streptavidin bead assay)
Format: biochemical
Conditions: with 5 mM potassium phosphate; average obtained by additional tests; read-out: IC50 (μM) 5 mM K3 PO4 -2, number in parentheses
Answer with the number, then the unit.

INSERT INTO assay_data (compound, observedmeasurement) VALUES
  ('O=C(CN(Cc1ccc(Cl)cc1)C(=O)[C@H](Cc1c[nH]cn1)NC(=O)OCc1ccccc1)NCCOCc1ccccc1', '0.61 µM');

Answer with reported IC50 of CC(CNC(=O)CN(Cc1ccc(OCc2ccccc2)cc1)C(=O)[C@H](Cc1c[nH]cn1)NC(=O)NCc1ccccc1)c1ccccc1 (stereo partly drawn)
0.017 µM

Answer with reported IC50 of CC(CNC(=O)CN(Cc1ccc(OCc2ccccc2)cc1)C(=O)[C@H](Cc1c[nH]cn1)NC(=O)OCc1ccccc1)c1ccccc1 (stereo partly drawn)
0.005 µM

###

Molecular target: SF9 affinity purified rat farnesyl protein transferase (Rattus norvegicus, UniProt Q02293+Q04631)
Construct: made in house; host or cells: Sf9 insect cells (baculovirus system inferred from b7)
Assay: PFT inhibitory activity (radiolabeled farnesyl pyrophosphate, streptavidin bead assay)
Format: biochemical
Conditions: HEPES buffer pH 7.4, without 5 mM potassium phosphate; read-out: IC50 (μM) Hepes
Method: The protein:farnesyl transferase (PFT) or farnesyl protein transferase (FPT) inhibitory activity of compounds of the present invention were assayed in HEPES buffer (pH 7.4) containing 5 mM potassium phosphate and 20 μM ZnCl2. The solution also contained 5 mM DTT (dithiothreitol), 5 mM MgCl2, and 0.1% PEG 8000. […] After allowing the plate to settle for 30 minutes at room temperature, radioactivity was quantitated on a microBeta counter (Model 1450, Wallec). […]
// assign MET if IC50 falls strictly below 0.9 µM, else NOT MET (ties count as NOT MET)

Solved cases (2 shown):
INSERT INTO assay_data (compound, answerlabel) VALUES
  ('N#CC(CNC(=O)CN(Cc1ccc(OCc2ccccc2)cc1)C(=O)[C@H](Cc1c[nH]cn1)NC(=O)OCc1ccccc1)c1ccccc1 (stereo partly drawn) [Example 45]', 'MET'),
  ('CC(CNC(=O)CN(Cc1ccc(Cl)cc1)C(=O)[C@H](Cc1c[nH]cn1)NC(=O)OCc1ccccc1)c1ccccc1 (stereo partly drawn) [Example 13]', 'NOT MET');

Quick check: does CCC(CC)(CNC(=O)CN(Cc1ccc(OCc2ccccc2)cc1)C(=O)[C@H](Cc1cnc[nH]1)NC(=O)OCc1ccccc1)c1ccccc1 [Example 25] have IC50 under 0.9 µM?
NOT MET
